Source of measurements: paper PMC9177983

- Test System: Mfd (Escherichia coli, UniProt P30958 1-1148)
- Experimental Details: SPR; 0.5 mM ATPgS; SPR: 30 mM Tris/HCl pH 7.6, 40 mM KCl, 5 mM MgCl2, 0.005% P20, 0.25 mM EDTA, 0.5 mM DTT, 0.5 mM ATPgS, 20 C; smFRET: 20 mM Tris/HCl pH 8.0, 40 mM KCl, 5 mM MgCl2, 1 mM 2-mercaptoethanol
- Stated Conditions: protein: recombinant; tags: none stated; label: 5' biotin on AS18; blunt
Readout Type: Kd (µM)
Provide only the numeric value, understood in µM.

Query Kd for S18:bio_AS18 (dsDNA) DNA 1: GCCTCGCTGCCGTCGCCA DNA 2: TGGCGACGGCAGCGAGGC
0.09
